- Tested on: L1210 leukemia ip in BDF1 mice, survival T/C
- EXPERIMENTAL_DETAILS: NCI In Vivo Anticancer Drug Screen. Data for tumor model L1210 Leukemia (intraperitoneal) in B6D2F1 (BDF1) mice
- APPLIED_CONDITIONS: endpoint: mean survival time; dose: 6.25 mg/kg/injection; schedule: Q01DX009 (ip); vehicle: saline with Tween-80; higher = longer survival
Inconclusive results and toxic doses are left out.
The compounds listed here are annotated with their T/C.
MEASURED_ENDPOINT: T/C

>>> result("c1ccc(C[n+]2ccc3ccccc3c2)cc1")
"95 % of control"
>>> result("C[n+]1ccc2ccccc2c1CCCc1nccc2ccccc12")
"111 % of control"
>>> result("CCc1cc2c(cc1C(=O)CBr)C(C)(C)CCC2(C)C")
"103 % of control"
>>> result("CCCCCC(=O)Oc1c(C(C)CC)cc([N+](=O)[O-])cc1[N+](=O)[O-] (stereo not given)")
"111 % of control"
>>> result("CCCCCCCCOC(CN)C(Cl)(Cl)Cl (stereo not given)")
"103 % of control"
